- Tested on: H9C2 cells
- Protocol: Alanine scan: percentage of Cy5.5 positive H9C2 cells by FACS
- Type: cell-based, rat
- Cond: percentage of Cy5.5 positive H9C2 cells normalized to non-mutated peptide (SEQ ID NO: 1); Cy5.5-conjugated peptides, 30 minutes at 37° C.
Where no end group is shown, it is not given here.
I'd be grateful if you could share measured % transduction of H9C2 Cells for these entries.
Answers are plain numbers, in %.

>>> reported_measurement("APWALSSQYSRT (also: Cy5.5 conjugate, site not given here) [H4A, alanine variant of CTP, Cy5.5 conjugated]")
55.05

Lab note: each sequence below needs its % transduction of H9C2 Cells filled in.
1. APWHLSSQYSAT (also: Cy5.5 conjugate, site not given here) [R11A, alanine variant of CTP, Cy5.5 conjugated]
2. APWHLSAQYSRT (also: Cy5.5 conjugate, site not given here) [S7A, alanine variant of CTP, Cy5.5 conjugated]

Result:
32.75
54.32

Lab note: each sequence below needs its % transduction of H9C2 Cells filled in.
1. APWHLSSQYART (also: Cy5.5 conjugate, site not given here) [S10A, alanine variant of CTP, Cy5.5 conjugated]
2. APWHLSSQYSRT (also: Cy5.5 label, site not given here) [CTP, 12-amino acid cardiac-specific targeting peptide, tested conjugated to Cy5.5]
3. AAWHLSSQYSRT (also: Cy5.5 conjugate, site not given here) [P2A, alanine variant of CTP, Cy5.5 conjugated]

Result:
1: 30.61; 2: 100; 3: 59.15
